Test system: Bacillus subtilis
test method notes: cleaved RNA product abundance (RNA/gDNA barcode ratio) relative to median wild-type variant (ratio to wild type); higher = more accumulation of the downstream cleavage product
conditions: experiment (reporter, strain, medium): exp 8a: truncated aprE reporter, strain BJT201 with 2% xylose (RNase J1 expressed); cleavage site: glnRA (positions -5 to +31 mutated)
cleaved RNA product abundance of 0.3 or higher: yes. Under 0.3: no.

# query sequence, classification
measured = [
    ("CGACATGTCCCGCTTCTTTCATTAATCCGTTAGCAACTGTTTTGCTATCTACAGTTACCTTTTAAGAGGAGGAAT", "no"),
    ("CGACATGTCCCGCTTCTTTCATTAATCCGTTACCAACTGTTTTGCTATATACGTTTACCTTTTAAGAGGAGGAAT", "no"),
    ("CGACATGTCCCGCTTCTTTCATTAATCCGTTAGCAACTGTTTTGCTATATACATCTACATTTTAAGAGGAGGAAT", "yes"),
    ("CGACATGTCCCGCTTCTTTCATTAATCCGTTAGAAACTGTTTTGCTGTATACATTTACCTTTTAAGAGGAGGAAT", "no"),
    ("CGACATGTCCCGCTTCTTTCATTAATCCGTTAGCAACTATATTGCTATATACATTTACCTTTTAAGAGGAGGAAT", "yes"),
    ("CGACATGTCCCGCTTCTTTCATTAATCCGTTAGCAACTGATTTGCTATATACATTTTCCTTTTAAGAGGAGGAAT", "yes"),
    ("CGACATGTCCCGCTTCTTTCATTAATCCGTTAGTATCTGTTTTACTATATACATTTACCTTTTAAGAGGAGGAAT", "yes"),
    ("CGACATGTCCCGCTTCTTTCATTAATCCGTCAGAAACTGTTTTGCTATATACATTTACCTTTTAAGAGGAGGAAT", "no"),
    ("CGACATGTCCCGCTTCTTTCATTAATCCGTTAGCAACTGTTTTTTTATATACATTTACCTTTTAAGAGGAGGAAT", "yes"),
    ("CGACATGTCCCGCTTCTTTCATTAATCCGTTTGCAACTGTTTTGCTATACACATTTACCTTTTAAGAGGAGGAAT", "yes"),
    ("CGACATGTCCCGCTTCTTTCATTATTCCGTTAGCAACTGTTTTGCTATATACATTTATCTTTTAAGAGGAGGAAT", "yes"),
    ("CGACATGTCCCGCTTCTTTCATTAATCCGTTAGGAACTGTTTTGCAATATACATTTACCTTTTAAGAGGAGGAAT", "yes"),
    ("CGACATGTCCCGCTTCTTTCATTAATCCGTTAGCAACTGTTTTGCTATATAGATTTACCTTTTAAGAGGAGGAAT", "yes"),
    ("CGACATGTCCCGCTTCTTTCATTAATCTGTTAGAAACTGTTTTGCTATATACATTTACCTTTTAAGAGGAGGAAT", "no"),
    ("CGACATGTCCCGCTTCTTTCATTAATCCGTTCGCAACTGTTTTGATATATACATTTACCTTTTAAGAGGAGGAAT", "yes"),
]
